Hello, the source for this data is paper PMC12557365, in case you need it.

- assayText: in vivo
- conditionDescription: male, Sprague-Dawley, rat, po, 1 umol/kg
// bioavailability lookup, one value per entry
Express the result in % but write the number alone.

[
  {
    "molecule": "N#CCn1c(N2CC(O)(C(F)(F)F)C2)c(-c2ccc(F)c(Cl)c2)c(=O)n(-c2cncc(Cl)c2)c1=O",
    "quantityUnit": "%",
    "bioavailability": 38
  }
]

Attention now turns to another entry.
Form field bioavailability, entry `N#CCn1c(N2CC3(C2)CC(F)(F)C3)c(-c2ccc(F)c(Cl)c2)c(=O)n(-c2cncc(Cl)c2)c1=O` : 100

* * *

- System: HCoV-229E
- assayText: microbe, parasite or virus in culture
- Format: cell-based
- conditionDescription: Human coronavirus 229E, MRC5, read-out: EC50 HCoV-229E
property: EC50 (nM)
Give the value, in units of nM, as a plain number.

The molecule listed as CC(C)(C)[C@H](NC(=O)C(F)(F)F)C(=O)N1C[C@H]2[C@@H]([C@H]1C(=O)N[C@H](C#N)C[C@@H]1CCNC1=O)C2(C)C [nirmatrelvir, reference compound] shows EC50 equal to 696

* * *

- measuredTarget: SARS-CoV-2 3CL^pro (Severe acute respiratory syndrome coronavirus 2)
- assayText: biochemical
- Assay type: biochemical
pIC50: −log10 of the molar value.
Would you mind labelling by pIC50? At or over 8 is 1.0, under is 0.0.

[
  {
    "molecule": "Cc1cncc(-n2c(=O)c(Cc3cc(F)c(F)c(F)c3)c(N3Cc4ccccc4C3)n(C)c2=O)c1",
    "cat": 0.0
  },
  {
    "molecule": "Cc1cncc(-n2c(=O)c(Cc3ccc(F)c(F)c3)c(N3CC4(CCOC4)C3)n(CC#N)c2=O)c1",
    "cat": 0.0
  },
  {
    "molecule": "Cc1cncc(-n2c(=O)c(Cc3ccccc3)c(N3CC4(CCOC4)C3)n(CC#N)c2=O)c1",
    "cat": 0.0
  },
  {
    "molecule": "N#CCn1c(N2CC3(CCOC3)C2)c(-c2ccc(F)c(Cl)c2)c(=O)n(-c2cncc(Cl)c2)c1=O",
    "cat": 1.0
  },
  {
    "molecule": "N#CCn1c(N2CC(O)(C(F)(F)F)C2)c(-c2ccc(F)c(Cl)c2)c(=O)n(-c2cncc(Cl)c2)c1=O",
    "cat": 1.0
  }
]

Consider now this further compound.
Exercise: Textbook exercise: given the entry `Cc1cncc(-n2c(=O)c(Cc3cc(F)c(F)c(F)c3)c(N3CCC(C(F)(F)F)CC3)n(CC#N)c2=O)c1` , state whether its pIC50 is greater than or equal to 8.
Solution: 1.0

* * *

The entries below are paired with their reported Papp A→B.
- measuredTarget: P-gp (Homo sapiens, UniProt P08183)
- Sequence (P08183 whole entry): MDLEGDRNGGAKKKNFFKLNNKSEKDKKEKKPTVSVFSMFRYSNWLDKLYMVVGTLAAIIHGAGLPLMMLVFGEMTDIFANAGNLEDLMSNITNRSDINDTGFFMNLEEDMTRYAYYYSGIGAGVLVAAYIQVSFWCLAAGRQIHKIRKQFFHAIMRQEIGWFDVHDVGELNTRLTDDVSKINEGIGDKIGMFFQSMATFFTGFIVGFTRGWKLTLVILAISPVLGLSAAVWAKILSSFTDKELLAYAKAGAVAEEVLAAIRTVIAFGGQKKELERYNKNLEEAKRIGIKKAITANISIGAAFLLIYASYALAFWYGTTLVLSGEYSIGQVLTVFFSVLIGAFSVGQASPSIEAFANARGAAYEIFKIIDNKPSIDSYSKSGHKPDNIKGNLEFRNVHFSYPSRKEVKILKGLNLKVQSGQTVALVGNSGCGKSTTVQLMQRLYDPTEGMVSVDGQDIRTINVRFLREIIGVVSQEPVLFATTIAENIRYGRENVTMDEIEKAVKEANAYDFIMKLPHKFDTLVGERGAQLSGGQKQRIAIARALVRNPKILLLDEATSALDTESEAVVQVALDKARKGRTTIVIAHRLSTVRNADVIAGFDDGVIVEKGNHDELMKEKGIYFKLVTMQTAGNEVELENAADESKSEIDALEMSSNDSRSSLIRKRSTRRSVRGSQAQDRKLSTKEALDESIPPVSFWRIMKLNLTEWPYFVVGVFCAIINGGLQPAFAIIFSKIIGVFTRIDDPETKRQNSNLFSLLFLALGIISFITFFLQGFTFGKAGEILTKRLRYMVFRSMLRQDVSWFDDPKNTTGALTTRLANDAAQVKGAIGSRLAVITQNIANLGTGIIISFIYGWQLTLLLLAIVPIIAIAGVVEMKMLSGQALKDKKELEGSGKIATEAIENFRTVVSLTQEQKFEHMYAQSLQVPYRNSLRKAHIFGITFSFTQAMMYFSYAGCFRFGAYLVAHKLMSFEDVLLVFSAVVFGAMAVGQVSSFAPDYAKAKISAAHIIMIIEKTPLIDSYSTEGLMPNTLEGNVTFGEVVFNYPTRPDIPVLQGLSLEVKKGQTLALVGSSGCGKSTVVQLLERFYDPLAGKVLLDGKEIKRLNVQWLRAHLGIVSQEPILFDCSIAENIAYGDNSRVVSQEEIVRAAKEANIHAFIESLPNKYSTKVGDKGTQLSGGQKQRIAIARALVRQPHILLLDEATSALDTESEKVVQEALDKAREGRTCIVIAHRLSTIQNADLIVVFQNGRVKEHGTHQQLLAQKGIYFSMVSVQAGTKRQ
- assayText: in vitro
- conditionDescription: LLC-PK1
Number in ×10⁻⁶ cm/s, nothing else.

[
  {
    "compound": "CC(C)(C)[C@H](NC(=O)C(F)(F)F)C(=O)N1C[C@H]2[C@@H]([C@H]1C(=O)N[C@H](C#N)C[C@@H]1CCNC1=O)C2(C)C [nirmatrelvir, reference compound]",
    "Papp A→B, ×10⁻⁶ cm/s": 0.908
  }
]

Below: the item to evaluate.
// Papp A→B lookup, compound = `N#CCn1c(N2CC3(C2)CC(F)(F)C3)c(-c2ccc(F)c(Cl)c2)c(=O)n(-c2cncc(Cl)c2)c1=O` , result: 2.48
